- target-desc: UniProt Q13464
- Sequence (Q13464 whole entry): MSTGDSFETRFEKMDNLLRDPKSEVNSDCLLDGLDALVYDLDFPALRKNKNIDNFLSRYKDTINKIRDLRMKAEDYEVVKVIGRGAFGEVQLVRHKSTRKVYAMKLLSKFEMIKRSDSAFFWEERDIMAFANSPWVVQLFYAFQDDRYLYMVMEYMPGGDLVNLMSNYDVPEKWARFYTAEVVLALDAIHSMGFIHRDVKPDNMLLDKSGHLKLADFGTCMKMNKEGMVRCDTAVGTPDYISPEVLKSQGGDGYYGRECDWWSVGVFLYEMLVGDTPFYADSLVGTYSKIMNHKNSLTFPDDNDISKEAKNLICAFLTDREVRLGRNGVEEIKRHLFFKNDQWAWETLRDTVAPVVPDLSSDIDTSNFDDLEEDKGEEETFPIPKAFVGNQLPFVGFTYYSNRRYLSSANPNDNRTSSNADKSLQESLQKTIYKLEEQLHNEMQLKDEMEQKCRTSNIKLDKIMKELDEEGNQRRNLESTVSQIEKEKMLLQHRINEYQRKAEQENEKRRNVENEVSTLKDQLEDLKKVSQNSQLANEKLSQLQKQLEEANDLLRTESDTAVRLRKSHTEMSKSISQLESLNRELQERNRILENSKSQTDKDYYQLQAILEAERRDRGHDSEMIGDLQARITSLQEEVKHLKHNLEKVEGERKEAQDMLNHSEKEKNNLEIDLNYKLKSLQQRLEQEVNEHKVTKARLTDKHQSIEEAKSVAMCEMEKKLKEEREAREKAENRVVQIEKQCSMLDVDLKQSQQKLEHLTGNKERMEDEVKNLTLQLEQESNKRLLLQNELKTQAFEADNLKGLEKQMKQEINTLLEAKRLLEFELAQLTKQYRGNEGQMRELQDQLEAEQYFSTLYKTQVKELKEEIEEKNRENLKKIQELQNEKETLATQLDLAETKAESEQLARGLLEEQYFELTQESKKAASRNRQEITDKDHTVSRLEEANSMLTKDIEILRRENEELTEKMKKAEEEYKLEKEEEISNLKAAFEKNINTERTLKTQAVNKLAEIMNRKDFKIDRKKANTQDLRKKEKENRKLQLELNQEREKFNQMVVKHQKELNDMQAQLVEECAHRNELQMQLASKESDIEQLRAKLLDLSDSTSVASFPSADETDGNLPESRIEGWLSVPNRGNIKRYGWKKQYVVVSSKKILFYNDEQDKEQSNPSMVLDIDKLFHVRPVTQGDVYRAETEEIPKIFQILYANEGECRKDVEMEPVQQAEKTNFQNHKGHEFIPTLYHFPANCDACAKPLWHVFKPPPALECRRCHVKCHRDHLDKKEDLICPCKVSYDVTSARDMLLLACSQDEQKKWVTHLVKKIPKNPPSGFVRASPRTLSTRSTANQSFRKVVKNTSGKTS
Each record here notes measured IC50.

Reference set, count: 3
# input Recall the reported IC50 of `COc1ccc2c(c1)CN(c1nc3c(c(Nc4ccc5[nH]ncc5c4)n1)CCN(C)C3)C2` on UniProt Q13464 and write it down.
# output > 10 µM

# input Recall the reported IC50 of `COc1ccc2c(c1)CN(c1nccc(Nc3ccncc3)n1)C2` on UniProt Q13464 and write it down.
# output > 10 µM

# input Recall the reported IC50 of `c1ccc2c(c1)CN(c1nccc(Nc3ccc4[nH]ncc4c3)n1)C2` on UniProt Q13464 and write it down.
# output > 10 µM

Further cases:
# input Recall the reported IC50 of `Clc1ccc2c(c1)CN(c1nccc(Nc3ccc4[nH]ncc4c3)n1)C2` on UniProt Q13464 and write it down.
# output > 10 µM

# input Recall the reported IC50 of `COCc1ccc2c(c1)CN(c1nccc(Nc3ccc4[nH]ncc4c3)n1)C2` on UniProt Q13464 and write it down.
# output 6.73 µM

----------
For reference, IC50 measured on ROCK2 (Homo sapiens (Human), UniProt O75116):
experimental-readout: IC50 (nM)

P. COc1nc(N2Cc3ccccc3C2)nc(Nc2ccc3[nH]ncc3c2)c1OC [Example 32]
Q. Fc1cccc2c1CN(c1nccc(Nc3ccc4[nH]ncc4c3)n1)C2 [Example 29]
R. COc1ccc2c(c1)CN(c1nc3c(c(Nc4ccc5[nH]ncc5c4)n1)CCN(C)C3)C2 [Example 25]
# input Rank descending by IC50. // respond by listing labels in the order requested
# output Q, P, R

Source listed as patent US10125144B2.
